Below are compounds with their MIC as measured on E.coli Neumann.
quantity name: MIC

> print(dat)
                                   compound         result
1  O=C(O)c1cn(C2CC2)c2cc(-c3cccnc3)c(F)cc2c1=O  ≤ 0.015 µg/mL
2  NCc1ccc(-c2cc3c(cc2F)c(=O)c(C(=O)O)cn3C2CC2)cc1  ≤ 0.015 µg/mL
3  O=C(O)c1cn(C2CC2)c2cc(-c3ccc4ccccc4c3)c(F)cc2c1=O    0.062 µg/mL
4  O=C(O)c1cn(C2CC2)c2cc(N3CCNCC3)c(F)cc2c1=O [Ciprofloxacin, reference compound]  ≤ 0.015 µg/mL
